// data source = patent US20260325540A1

pIC50: −log10 of the molar value.
pIC50, MERS-CoV 3CLpro (Middle East respiratory syndrome-related coronavirus, UniProt K9N638), per-entry values.

- structure.smiles.string: "CC(C)C[C@@H]1NC(=O)[C@@H](NC(=O)OC(C)(C)C)CCC[C@H]2CNC(=O)[C@@H]2C[C@@H](C=O)NC1=O"
  target.or.test.system: "MERS-CoV 3CLpro (Middle East respiratory syndrome-related coronavirus, UniProt K9N638)"
  result: "6.00 to 7.00"

Lab book: pIC50 of "CC(C)(C)OC(=O)N[C@H]1CCCC[C@H]2CNC(=O)[C@H]2C[C@@H](C#N)NC(=O)[C@H](CC2CCCC2)NC1=O" noted as 4.70 to 6.00

pIC50 in this record for "CC1(C)[C@@H]2[C@H]3C(=O)N[C@H](C#N)C[C@@H]4C(=O)NC[C@@H]4CCCC[C@H](NC(=O)C4CCOCC4)C(=O)N3C[C@@H]21" : > 7.00

====

# IC50 per entry
target: SARS-CoV-2 3CLpro (Severe acute respiratory syndrome coronavirus 2); assay: FRET based protease assay, SARS-CoV-2 3CL

# IC50 of "CC(C)C[C@@H]1NC(=O)CCCCC[C@H]2CNC(=O)[C@H]2C[C@@H](C#N)NC1=O" = 1000 to 20000 nM

Recorded IC50 (molecule "CC1(C)[C@@H]2[C@H]3C(=O)N[C@H](C#N)C[C@@H]4C(=O)NC[C@@H]4CCCC[C@H](NC(=O)CC4CC(F)(F)C4)C(=O)N3C[C@@H]21" ): < 100 nM

The molecule identified as "CC1(C)[C@@H]2[C@H]3C(=O)N[C@H](C#N)C[C@@H]4C(=O)NC[C@@H]4CCCC[C@H](NC(=O)c4cncnc4)C(=O)N3C[C@@H]21" registered its IC50 at < 100 nM

The molecule "CC(C)C[C@@H]1NC(=O)CCCC[C@@H]2CNC(=O)[C@@H]2C[C@@H](C=O)NC1=O" showed IC50 equal to 1000 to 20000 nM

Value of measured IC50 for the entry "CC(C)(C)C[C@@H]1NC(=O)[C@@H](NC(=O)OC(C)(C)C)CCCC[C@H]2CNC(=O)[C@H]2C[C@@H](C#N)NC1=O" : < 100 nM

====

molecular target: SARS-CoV-2 3CLpro (Severe acute respiratory syndrome coronavirus 2); experiment: FRET based protease assay, SARS-CoV-2 3CL
quantity.name: IC50

Worked set:
- structure.smiles.string: "CC(C)C[C@@H]1NC(=O)[C@@H](NC(=O)C(C)(C)C)CC/C=C/[C@H]2CNC(=O)[C@H]2C[C@@H](C#N)NC1=O"
  IC50: "< 100 nM"
- structure.smiles.string: "CC(C)(C)C(=O)N[C@H]1CCCC[C@H]2CNC(=O)[C@H]2C[C@@H](C#N)NC(=O)[C@@H]2CCCN2C1=O"
  IC50: "1000 to 20000 nM"

Could you now consider this next compound?
Field IC50 (system: SARS-CoV-2 3CLpro (Severe acute respiratory syndrome coronavirus 2)) for entry "CC(C)C[C@@H]1NC(=O)[C@H](Cc2ccccc2)CCC[C@@H]2CNC(=O)[C@@H]2C[C@@H](C=O)NC1=O" = 1000 to 20000 nM

====

Reported IC50 values are given for each entry in this list.
target: UniProt K9N638

Test item "CC(C)C[C@@H]1NC(=O)CCCC[C@H]2CNC(=O)[C@@H]2C[C@@H](C=O)NC1=O" ; UniProt K9N638; reported IC50 was 100 to 1000 nM

CC(C)(C)OC(=O)N[C@H]1CCCC[C@H]2CCNC(=O)[C@H]2C[C@@H](C#N)NC(=O)[C@@H]2[C@@H]3[C@H](CN2C1=O)C3(C)C [Example 110] tested on UniProt K9N638 gave IC50: 100 to 1000 nM

Entry "CC(C)C[C@@H]1NC(=O)[C@@H](Cc2ccc(F)cc2)CCCC[C@@H]2CNC(=O)[C@@H]2C[C@@H](C#N)NC1=O" , tested on UniProt K9N638, has a reported IC50 of 1000 to 20000 nM

"CC(C)C[C@@H]1NC(=O)[C@@H](NC(=O)OC(C)(C)C)CCC[C@@H]2CNC(=O)[C@@H]2C[C@@H](C=O)NC1=O" tested on UniProt K9N638 gave IC50: 1000 to 20000 nM

IC50 value, target or system UniProt K9N638, for "CC1(C)[C@@H]2[C@H]3C(=O)N[C@H](C#N)C[C@@H]4C(=O)NC[C@@H]4CCCC[C@H](Nc4nccc(C(F)(F)F)n4)C(=O)N3C[C@@H]21" : 100 to 1000 nM

Summary: "CC1(C)[C@@H]2[C@H]3C(=O)N[C@H](C#N)C[C@@H]4C(=O)NC[C@@H]4CCCC[C@H](NC(=O)c4ccc(Cl)c(Cl)c4)C(=O)N3C[C@@H]21" , UniProt K9N638, IC50 = < 100 nM

Query "CC(C)C[C@@H]1NC(=O)CCCCCC[C@@H]2CNCC(=O)[C@H]2C[C@@H](C=O)NC1=O" on UniProt K9N638; IC50 returned: > 20000 nM

The recorded IC50 with UniProt K9N638 for "CC1(C)[C@@H]2[C@H]3C(=O)N[C@H](C#N)C[C@@H]4C(=O)NC[C@@H]4CCCC[C@H](NC(=O)C4CCC4)C(=O)N3C[C@@H]21" was 100 to 1000 nM

// molecule "N#C[C@@H]1C[C@@H]2C(=O)NC[C@@H]2CCCC[C@H](Nc2nccc(C(F)(F)F)n2)C(=O)N2C[C@@H]3CCC[C@@H]3[C@H]2C(=O)N1" , assay UniProt K9N638, IC50 value: 100 to 1000 nM

Simply: "CC(C)C[C@@H]1NC(=O)[C@@H](NC(=O)C(C)(C)C)CCCC[C@H]2CNC(=O)[C@@H]2C[C@@H](C#N)NC1=O" , UniProt K9N638, IC50 = 100 to 1000 nM

With UniProt K9N638 as the test system, "CC(C)(C)OC(=O)N[C@H]1CC/C=C/[C@H]2CNC(=O)[C@H]2C[C@@H](C#N)NC(=O)[C@@H]2[C@@H]3[C@H](CN2C1=O)C3(C)C" showed IC50 of < 100 nM

# IC50 measured on UniProt K9N638 for item "CC(C)C[C@@H]1NC(=O)[C@@H](Cc2ccccc2)CCCC[C@H]2CNC(=O)[C@@H]2C[C@@H](C=O)NC1=O" = 100 to 1000 nM

====

molecular target: SARS-CoV-2 3CLpro (Severe acute respiratory syndrome coronavirus 2); assay: FRET based protease assay, SARS-CoV-2 3CL
Below is a list of entries, each paired with its recorded IC50 value.

Look over these answered cases.
- structure.smiles.string: "Cc1cc(C(=O)N[C@H]2CCCC[C@H]3CNC(=O)[C@H]3C[C@@H](C#N)NC(=O)[C@@H]3[C@@H]4[C@H](CN3C2=O)C4(C)C)no1"
  IC50: "< 100 nM"
- structure.smiles.string: "CC1(C)[C@@H]2[C@H]3C(=O)N[C@H](C#N)C[C@@H]4C(=O)NCC[C@@H]4CCCC[C@H](NC(=O)OC4CCCC4)C(=O)N3C[C@@H]21"
  IC50: "< 100 nM"
- structure.smiles.string: "CC1(C)[C@@H]2[C@H]3C(=O)N[C@H](C#N)C[C@@H]4C(=O)NC[C@@H]4CCCC[C@H](NS(=O)(=O)C(F)(F)F)C(=O)N3C[C@@H]21"
  IC50: "< 100 nM"

The compound listed as "CC1(C)[C@@H]2[C@H]3C(=O)N[C@H](C#N)C[C@@H]4C(=O)NC[C@@H]4CCCC[C@H](NC(=O)C45CC(C(F)(F)F)(C4)C5)C(=O)N3C[C@@H]21" shows IC50 equal to < 100 nM

Briefly, IC50 measured for "CC(C)(C)C(=O)N[C@H]1CCCC[C@H]2CNC(=O)[C@H]2C[C@@H](C#N)NC(=O)[C@H](C2CCCC2)NC1=O" : 100 to 1000 nM

"CC(C)C[C@@H]1NC(=O)CCCCCC[C@@H]2CNCC(=O)[C@H]2C[C@@H](C=O)NC1=O" yielded IC50 of 1000 to 20000 nM

====

molecular target: SARS-CoV-2 3CLpro (Severe acute respiratory syndrome coronavirus 2); test: FRET based protease assay, SARS-CoV-2 3CL; format: biochemical, SARS-CoV-2 (strain BetaCoV/Wuhan/WIV04/2019)
pIC50: −log10 of the molar value.
pIC50 for assorted compounds

- compound: "CC1(C)[C@@H]2[C@H]3C(=O)N[C@H](C#N)C[C@@H]4C(=O)NC[C@@H]4CCCC[C@H](NS(=O)(=O)c4ccc(F)cc4F)C(=O)N3C[C@@H]21 [Example 157]"
  pIC50: "> 7.00"
- compound: "CC(C)(C)C[C@@H]1NC(=O)[C@@H](NC(=O)c2ccc(Cl)c(Cl)c2)CCCC[C@H]2CNC(=O)[C@H]2C[C@@H](C#N)NC1=O [Example 136]"
  pIC50: "> 7.00"
- compound: "CC(C)C[C@@H]1NC(=O)[C@@H](NC(=O)OC(C)(C)C)CCC[C@H]2CNC(=O)[C@@H]2C[C@@H](C=O)NC1=O [Example 19]"
  pIC50: "> 7.00"
- compound: "CN1C[C@@H]2CCCC[C@H](NC(=O)OC(C)(C)C)C(=O)N3C[C@H]4[C@@H]([C@H]3C(=O)N[C@H](C#N)C[C@@H]2C1=O)C4(C)C [Example 140]"
  pIC50: "6.00 to 7.00"
- compound: "CC1(C)[C@@H]2[C@H]3C(=O)N[C@H](C#N)C[C@@H]4C(=O)NC[C@@H]4CCCC[C@H](NS(=O)(=O)C4CCC4)C(=O)N3C[C@@H]21 [Example 160]"
  pIC50: "> 7.00"

// assay SARS-CoV-2 3CLpro (Severe acute respiratory syndrome coronavirus 2), entry CC1(C)[C@@H]2[C@H]3C(=O)N[C@H](C#N)C[C@@H]4C(=O)NC[C@@H]4CCCC[C@H](NC(=O)OC4(C(F)(F)F)CCC4)C(=O)N3C[C@@H]21 [Example 152] , pIC50 value = > 7.00
